Reference source: PubChem BioAssay AID652236

For each of the compounds below, state its ratio percent.
target: Chloride channel protein 1 (Rattus norvegicus); experiment: blockers of rat ClC-1 channel – cell-based, voltage-dependent ClC-1, selectivity assay for TMEM16A inhibitor project (AID 652236); details: CHO ClC-1-YFP, iodide influx fluorescence quench; at 10 µM; iodide control reads 0, buffer control 100;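 further: higher percent means stronger block of ClC-1 iodide influx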
The campaign covered roughly 2,300 compounds. Fewer than 10 were called active. These entries were drawn from the full list.
Give the value, in units of %, as a plain number.

Which ratio percent is reported for this compound? CC(=O)c1cc(CN2CCC(C(=O)Nc3cccc(-c4cscn4)c3)CC2)cs1
-16.5

And Cc1nc(CNS(=O)(=O)c2ccc(Oc3ccccc3)cc2)cs1 ?
-6.5

Try this compound next: CCCc1cc(=S)n2c([nH]c3ccccc32)c1C#N
-9.5

What would you report for S=C(NCC1CCCO1)N1CCN(c2ccc(Cl)c(Cl)c2)CC1 (configuration not stated) ?
-16.5

Please do the same for CCCCNC(=O)CSc1nc2n[nH]c(C)c2c(=N)n1-c1cccc(Cl)c1C as well.
-4.5

And for Cc1ccc(C)c(N2CCN(C(=O)CCCCn3c(=O)[nH]c4ccccc4c3=O)CC2)c1 ?
-2

What do we get for Cc1nc2c(C(=O)NCc3ccc4c(c3)OCO4)c[nH]n2c(=O)c1Cc1ccccc1F ?
-1.5

Could you do the same for N#Cc1nc(COc2ccc(-c3ccccc3)cc2)oc1NCc1cccnc1 , please?
-19

And the next one, COc1ccc(CNc2nnnn2C)cc1 ?
-10.5

Now this one: Cc1ccc2c(c1)N(CC(=O)N1CCCc3ccccc31)C(=O)C(C)O2 (configuration not stated)
-3

Then what about the compound N#CC1=C(SCc2ccccc2)NC(=O)C(C#N)C12CCCC2 (configuration not stated) ?
-12.5

Please give the result for Cc1ccc(F)cc1NC(=O)Cc1nn(C)c(=O)c2ccccc12 too.
-14

// next record CCN(CC)S(=O)(=O)c1ccc(N(C)Cc2ccc(C(F)(F)F)cc2)nc1
-9

Lookup C=C(C)Cn1c(C)cc(C)c(S(=O)(=O)c2ccccc2C)c1=O
-6

Note, next up: CCc1cc2c(N3CCN(c4nnc(CC)s4)CC3)ncnc2s1
-5

Same read-out for CCOC(=O)N1CCN(C(=O)c2ccc3c(c2)N(Cc2ccc(C)cc2)CCS3)CC1 ?
-13

What about this compound? O=C(CSCc1ccc(Cl)cc1)N1CCN(Cc2ccc3c(c2)OCO3)CC1
2.5

Now the same for CC(=O)c1c(C)[nH]c(C(=O)COC(=O)c2cccc(S(=O)(=O)N(C)c3ccccc3)c2)c1C
-31

Item: COc1ccc(-c2nc(CCNC(=O)c3ccc(Br)o3)cs2)cc1
-12

Again, but for Cc1noc(C)c1COC(=O)c1cc2ccccc2cc1O
-10.5

Also O=C(NCCc1ccc2c(c1)OCCO2)c1cc2ccccc2o1 , if possible.
-21

# repeat for Fc1ccc2[nH]c3c(N4CCSCC4)ncnc3c2c1
-36.5

###

biological target: Chloride channel protein 1 (Rattus norvegicus); assay: blockers of rat ClC-1 channel – cell-based, voltage-dependent ClC-1, selectivity assay for TMEM16A inhibitor project (AID 652236); details: CHO ClC-1-YFP, iodide influx fluorescence quench; at 10 µM; iodide control reads 0, buffer control 100;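 further: higher percent means stronger block of ClC-1 iodide influx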
The campaign covered roughly 2,300 compounds. Fewer than 10 were called active. Only a sample is shown.
For each entry below, report its ratio percent value.
Quick reminder: number only, in %, skip the unit.

Reported ratio percent for CCOC(=O)C1CCN(c2ncnc3c2oc2ccc(Br)cc23)CC1 : what is it?
-36.5

Next entry: Cc1ccc(N)cc1-n1c(C)ccc1C
-8

Also need Cc1ccc(-n2[nH]c(C)c(/C=N/N3C(=O)c4cccc5cccc(c45)C3=O)c2=O)cc1 , thanks.
-16

Entry O=c1cc(C(F)(F)F)[nH]c(=O)n1C1CCCCC1 please
0

Also check Cc1ccc(-c2noc(CSc3nnnn3-c3ccccc3)n2)cc1
-1.5

Try this molecule too: CN(c1cccc(NC(=O)c2ccc(CN3CCc4ccccc4C3)cc2)c1)S(C)(=O)=O
-8

Request: Cc1nc(C)c(-c2csc(NCCc3ccccc3)n2)s1
-9

Continue with Cn1c(=O)n(C)c2cc(S(=O)(=O)N3CCCc4ccccc43)ccc21
-7.5

Input CCOC(=O)c1cccc(NC(=O)CCn2nnc3ccccc32)c1
-15

Consider next the molecule O=C(Nc1nc(-c2ccc3c(c2)OCO3)cs1)c1ccncc1 in the same way.
-13.5

Please give the result for COc1cccc(CNS(=O)(=O)c2ccc3c(c2)CC(C)N3C(=O)C2CCC2)c1 (centres undefined) too.
-19.5

# iterate: O=C(COC(=O)CCc1c[nH]c(=O)[nH]1)Nc1ccccc1Cl
-14

Follow-up item: Cc1ccc(N2C(=O)S/C(=C/c3cn(C)c4ccccc34)C2=O)cc1
-10

Repeat with Cn1c(CN2CCOCC2)nc2cc(NC(=O)c3ccc(Cl)cc3)ccc21
-9

Also need O=C1c2ccccc2C(Nc2ccc3c(c2)OCCO3)N1Cc1ccco1 (centres undefined) , thanks.
-13

Another molecule to look at: O=C(N/N=C/c1cc(Cl)cc([N+](=O)[O-])c1O)C(O)(c1ccccc1)c1ccccc1
-7

c1ccc(-c2nnc(SCc3nc4ccccc4[nH]3)o2)cc1 ?
-14

Continue with CCCC(=O)Nc1ccccc1N1CCN(C(=O)c2ccccc2)CC1
-12.5

Entry O=S1(=O)CCN(Cc2ccccc2Cl)CC1 please
-3.5

How about this molecule: O=C(O)c1ccc(NC(=O)C2CCCCC2)cc1
-7

What about COc1ccc(OCC(=O)NCCc2ccc(S(N)(=O)=O)cc2)cc1 ?
-14

Also CSc1nsc(NC(=O)Nc2ccccc2)n1 ?
-7.5

# iterate: CN1c2ccc(C=O)c3c(C=O)ccc(c23)N(C)C1(C)C
-24.5

Entry to check: C=CCn1c(SCC(=O)Nc2nc3ccccc3s2)nnc1-c1ccccc1O
-17.5

What do we get for CCOC(=O)N1CC=C2C(C#N)=C(N)C(C#N)(C#N)[C@H](c3cccs3)[C@H]2C1 ?
-6.5

Follow-up item: COc1ccc(CCC(=O)c2ccc(OC)cc2)cc1
-4

How about O=C(Nc1ccccc1)c1ccccc1NC(=O)C(F)(F)F ?
-15

Now the same for N#Cc1nc(N)nc(N(c2ccccc2)c2ccccc2)n1
-2

Another molecule: COC(=O)c1ccc(NC(=O)c2ccccc2NS(=O)(=O)c2ccccc2)cc1
-22.5

Similarly, CCOC(=O)C1=C(CN2CCc3ccccc32)NC(=O)NC1c1cccc([N+](=O)[O-])c1 (centres undefined) ?
-12

Here is the next molecule: Cc1ccc(C(=O)O)cc1-c1ccc(/C=C2\SC(=O)N(CC(=O)Nc3ccc4c(c3)OCO4)C2=O)o1
-5.5

Another molecule to look at: CN(C)c1cc[n+](Cc2ccccc2)cc1
-5

Further, for Cc1ccccc1-n1nnnc1SCCCC(=O)c1ccc(F)cc1 ?
-11

Now try COc1ccc(C(=O)NC2CCCc3c2cnn3-c2cccc(C)c2C)c(OC)n1 (centres undefined) .
-21.5

Another molecule: COc1ccc2[nH]cc(/C=C(/C#N)S(=O)(=O)c3ccccc3)c2c1
-11.5

Follow-up entry: CCCCCc1ccc(-c2ccc(C(=O)O)cc2)nc1
-6

// repeat for O=C(NC(=S)Nc1ccccc1C(=O)O)c1ccc(-c2ccc(Br)cc2)o1 and report
-15

Now this one: COc1ccc(-n2c(C)cc(C(=O)CSc3nnc(-c4cccs4)o3)c2C)cc1
-7

Now consider S=C(NCc1ccc(Cl)cc1)NC12CC3CC(CC(C3)C1)C2 and answer again.
-20.5
